Numbers sourced from ChEMBL document CHEMBL3297685.

- Test system: MCF7
- ASSAY EXPLANATION: Cytotoxicity against human MCF7 cells assessed as cell survival at 25 uM after 48 hrs by […]
- Assay type: functional
- MEASUREMENT CONTEXT: MCF7, 48 h, read-out: Survival
QUANTITY MEASURED: viability at 25 µM (%)
Note: unit % is implicit; provide only the numeric part.

[[record]]
mol_smiles = "CCOC(=O)n1c(=O)nc2c3c(-c4ccc(Br)cc4)cn(-c4ccc(S(N)(=O)=O)cc4)c3ncn21"
measured = 31.1


API: the following record is the query input.
Entry `CC(=O)N1C(=O)/C(=N\n2cnc3c(c(-c4ccc(Br)cc4)cn3-c3ccc(S(N)(=O)=O)cc3)c2=N)c2ccccc21` ; viability at 25 µM = 28.7
